- measured_target: CRBN truncate (318-426) (Homo sapiens (Human), UniProt Q96SW2)
- Sequence (Q96SW2 318-426): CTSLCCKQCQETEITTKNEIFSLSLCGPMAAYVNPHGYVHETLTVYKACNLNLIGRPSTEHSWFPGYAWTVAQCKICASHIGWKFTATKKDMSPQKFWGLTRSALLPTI
- experiment_description: Measurement of molecular interactions using surface plasmon resonance (SPR), Biacore T200
- test_conditions: 25° C., immobilized CRBN truncate, upper limit of measurement 200 μM
pKd: −log10 of the molar value.
In this section we review reported pKd values for a set of compounds.

The examples below pair each entry with its known result.
{"compound": "O=C1CCCC(n2nc(I)c3ccccc32)C(=O)N1 (centres unmarked)", "measured_target": "CRBN truncate (318-426) (Homo sapiens (Human), UniProt Q96SW2)", "result": "> 4.30"}
{"compound": "CC(C)(C)OC(=O)CCc1ccc2c(c1)oc(=O)n2C1CCCC(=O)NC1=O (centres unmarked)", "measured_target": "CRBN truncate (318-426) (Homo sapiens (Human), UniProt Q96SW2)", "result": "4.00 to 4.30"}
{"compound": "CC(C)(C)OC(=O)/C=C/c1nn(C2CCCC(=O)NC2=O)c2ccccc12 (centres unmarked)", "measured_target": "CRBN truncate (318-426) (Homo sapiens (Human), UniProt Q96SW2)", "result": "4.00 to 4.30"}
{"compound": "Cn1nc(N2C=CCC(=O)NC2=O)c2ccc(/C=C/C(=O)OC(C)(C)C)cc21", "measured_target": "CRBN truncate (318-426) (Homo sapiens (Human), UniProt Q96SW2)", "result": "> 4.30"}
{"compound": "NC(=O)c1nn(-c2ccc(C(=O)NCCOCCOCCNC(=O)c3ccc(N4CCC5(CCCC(=O)NC5=O)CC4=O)nc3)cc2)cc1NC(=O)c1coc(-c2ccnc(NCC3CC3)c2)n1 (centres unmarked)", "measured_target": "CRBN truncate (318-426) (Homo sapiens (Human), UniProt Q96SW2)", "result": "> 4.30"}
{"compound": "O=C1CCCC2(CCN(C(=O)c3cnn4ccccc34)C2)C(=O)N1 (centres unmarked)", "measured_target": "CRBN truncate (318-426) (Homo sapiens (Human), UniProt Q96SW2)", "result": "≤ 4.00"}
{"compound": "CC(=O)N1CCN(Cc2ccc(N3CCC4(CCCC(=O)NC4=O)C3)nc2)CC1 (centres unmarked)", "measured_target": "CRBN truncate (318-426) (Homo sapiens (Human), UniProt Q96SW2)", "result": "≤ 4.00"}

Consider the additional compound presented here.
The measured pKd associated with CC1(CN2C(=O)c3ccccc3C2=O)CCCC(=O)NC1=O (centres unmarked) reads 4.00 to 4.30

* * *

- measured_target: CRBN truncate (318-426) (Homo sapiens (Human), UniProt Q96SW2)
- experiment_description: Measurement of molecular interactions using surface plasmon resonance (SPR), Biacore T200
- test_conditions: 25° C., immobilized CRBN truncate, upper limit of measurement 200 μM
Quick reference for Kd among some compounds

Take a look at these entries with their results.
{"compound": "COc1ccc2nc(N3CCC4(CCCC(=O)NC4=O)C3)sc2c1 (stereo not drawn)", "measured_target": "CRBN truncate (318-426) (Homo sapiens (Human), UniProt Q96SW2)", "Kd": "50 to 100 µM"}
{"compound": "CC(C)(C)OC(=O)c1ccc(CN2CCC3(CCCC(=O)NC3=O)CC2=O)cc1 (stereo not drawn)", "measured_target": "CRBN truncate (318-426) (Homo sapiens (Human), UniProt Q96SW2)", "Kd": "50 to 100 µM"}
{"compound": "Nc1ccc(N2CCC3(CCCC(=O)NC3=O)C2)c(F)c1 (stereo not drawn)", "measured_target": "CRBN truncate (318-426) (Homo sapiens (Human), UniProt Q96SW2)", "Kd": "≥ 100 µM"}
{"compound": "Nc1ccc(C(=O)N2CCC3(CCCC(=O)NC3=O)C2)cc1 (stereo not drawn)", "measured_target": "CRBN truncate (318-426) (Homo sapiens (Human), UniProt Q96SW2)", "Kd": "≥ 100 µM"}
{"compound": "O=C1CCCC2(CCN(C(=O)C3CCN(c4ncccn4)CC3)C2)C(=O)N1 (stereo not drawn)", "measured_target": "CRBN truncate (318-426) (Homo sapiens (Human), UniProt Q96SW2)", "Kd": "≥ 100 µM"}
{"compound": "O=C1CCCC(C(=O)Nc2ccc(F)cc2)C(=O)N1 (stereo not drawn)", "measured_target": "CRBN truncate (318-426) (Homo sapiens (Human), UniProt Q96SW2)", "Kd": "≥ 100 µM"}
{"compound": "CCOC(=O)c1ccc2nc(N3CC4(CC(=O)N(C5CCC(=O)NC5=O)C4=O)C3)sc2c1 (stereo not drawn)", "measured_target": "CRBN truncate (318-426) (Homo sapiens (Human), UniProt Q96SW2)", "Kd": "< 50 µM"}
{"compound": "O=C1CCCC2(CCN(c3nc4ccc([N+](=O)[O-])cc4s3)C2)C(=O)N1 (stereo not drawn)", "measured_target": "CRBN truncate (318-426) (Homo sapiens (Human), UniProt Q96SW2)", "Kd": "< 50 µM"}

Now for the compound whose Kd we want.
Result for O=C1CCCC2(CCN(C(=O)c3nc4ccccc4o3)C2)C(=O)N1 (stereo not drawn) , tested on CRBN truncate (318-426) (Homo sapiens (Human), UniProt Q96SW2), Kd: ≥ 100 µM
